# Study Target: human GLP-1 receptor (hGLP-1R) (human, UniProt P43220 24-463)
# Assay Overview: cell-based or functional assay
Starred links: 1 amine or outer side, 2 acyl side, 3 side chain; linkers in the order of their positions; H or OH if unused. Non-standard residues stand in square brackets, D forms with d. Groups on a side chain read outwards from the residue. No end group written: not given here. *: point of attachment. C20 diacid = O=C(O)CCCCCCCCCCCCCCCCCCC(=O)*; C18 diacid = O=C(O)CCCCCCCCCCCCCCCCC(=O)*; γGlu = O=C(O)[C@H](CCC(=O)[*:2])N[*:1]; αMeF = C[C@](N)(Cc1ccccc1)C(=O)O; AEEA = NCCOCCOCC(=O)O; Aib = CC(C)(N)C(=O)O
Lab note - cut at 70 pM for hGLP-1R EC50 (pM): class 1 if strictly below, class 0 if not.

>>> group_label("H[Aib]QGTFTSDVSK[αMeF]LDTK([AEEA-AEEA-γGlu-C18 diacid])RARDFVQWLLE[Aib]G (not fully specified (C-terminus)) [Peptide 427]")
"class 1"
>>> group_label("H[Aib]QGTFTSDVSK[αMeF]LDTK([AEEA-AEEA-γGlu-γGlu-C18 diacid])RAQDFVQWLLE[Aib]G-NH2 [Peptide 468]")
"class 1"
>>> group_label("H[Aib]QGTFTSDVSK[αMeF]LDTK([AEEA-AEEA-γGlu-C20 diacid])RARDFVAWLLE[Aib]G-NH2 [Peptide 507]")
"class 1"
>>> group_label("H[Aib]QGTFTSDVSK[αMeF]LDTK([AEEA-AEEA-γGlu-γGlu-C20 diacid])RAQDFVAWLEAGG-OH [Peptide 413]")
"class 0"
>>> group_label("H[Aib]QGTFTSDVSK[αMeF]LDTK([AEEA-AEEA-γGlu-C20 diacid])RAQDFVRWLLR[Aib]K-OH [Peptide 494]")
"class 0"
>>> group_label("H[Aib]QGTFTSDVSK[αMeF]LETKRARDFVQWLLE[Aib]G-OH (not fully specified (residue 17)) [Peptide 444]")
"class 0"

Cited source: patent US20230357348A1
